Origin of measurements: paper PMC4730229

- Test system: firefly luciferase
- Procedure Summary: Luciferase inhibition assay (Kinase-Glo, no kinase)
- Type: biochemical
- Measurement Context: compound at 10 μM
Measured Attribute: % inhibition of luciferase (%)

Solved entries (count: 6):
Molecule	Output Unit	Value
O=C(O)c1ccc(C(=O)Nc2ccccc2-c2nc3ccccc3[nH]2)cc1	%	5.6
CC(=O)Nc1ccc(-c2nc3c(Cl)cccc3[nH]2)cc1	%	17.5
CC(=O)Nc1nc2cc3c(cc2s1)OCO3	%	18.8
Cc1nc2ccc3sc(NC(=O)c4ccc5ncsc5c4)nc3c2s1	%	6.7
COCCNC(=O)c1cccc(Nc2nc(-c3ccccc3)c3cc(Cl)ccc3n2)c1	%	0
Fc1ccc(-c2csc3ncnc(NCc4ccccc4)c23)cc1	%	26.4

P: O=C(Nc1nc2c(s1)CCCC2)C1CC1
Q: O=C(Nc1cccc(-c2nc3ccccc3[nH]2)c1)c1ccc2nsnc2c1
R: COc1ccc(Cc2cnc(NC(=O)c3cc(C)oc3C)s2)cc1
S: CCN1/C(=C/C(C)=O)Sc2ccc(OC)cc21 [TG003, reference compound]
T: Cc1nc2c(ccc3nc(NC(=O)c4cccs4)sc32)s1
Prompt line: Sort the molecules on % inhibition of luciferase; start with the lowest figure. Ranked list of labels, please, in the requested order.
Response line: R, P, S, Q, T

----------
- Test system: firefly luciferase
- Procedure Summary: Luciferase inhibition assay (Kinase-Glo, no kinase)
- Type: biochemical
- Measurement Context: compound at 10 μM
Measured Attribute: % inhibition of luciferase (%)

Molecule	% inhibition of luciferase (%)
O=C(NCCO)c1ccc(Nc2nc(-c3ccccc3)c3cc(Cl)ccc3n2)cc1 [4B9]	20.4
CC1(C)Cc2cccc(OCC(=O)Nc3cccc(-c4cc[nH]n4)c3)c2O1 [18B6]	17.5
COc1ccccc1C(=O)Nc1nc2ncccc2cc1-c1ccccc1 [17F6]	21.9
O=C(Nc1cccc(-c2nc3ccccc3[nH]2)c1)c1ccc2ncsc2c1 [3B5]	26
CSc1nc2ccc3nc(NC(=O)c4ccc(S(=O)(=O)N5CCOCC5)cc4)sc3c2s1 [5F4]	23.6
COc1cc(C(=O)Nc2nc3ccc(S(=O)(=O)N4CCCCC4)cc3s2)cc(OC)c1OC [7C4]	19.6
CSc1nc2ccc3nc(NC(=O)c4ccco4)sc3c2s1 [5E4]	29.7
